Test system: UACC-62 melanoma
Assay: NCI tumour cell line growth inhibition, 48 h; in the data active = GI50 below about 0.43 µM; inactive = the rest
Lab note: assign the record to one of active, inactive

What did the test return for `Cn1cc(C2=C(c3cn(C)c4ccccc34)C(=O)NC2=O)c2ccccc21` ?
inactive

What did the test return for `c1ccc2cc(C[n+]3ccn(CCCCCCCCCCn4cc[n+](Cc5ccc6ccccc6c5)c4)c3)ccc2c1` ?
inactive

What did the test return for CC(=O)N1N=C2/C(=C/c3ccc(Cl)cc3)CC(C)CC2C1c1ccc(Cl)cc1 (centres undefined) ?
inactive

What did the test return for `CC(=O)Oc1ccc(/C(=C(\C)c2ccc(Cl)cc2)c2ccc(OCCN3CCCCC3)cc2)cc1` ?
inactive

What did the test return for NCC1OC(OC2C(CO)OC(OC3C(O)C(N)CC(N)C3OC3OC(CO)C(O)CC3N)C2O)C(N)C(O)C1OC1OC(CO)C(O)C(O)C1O (centres undefined) ?
inactive

What did the test return for `O=C(Nc1n[nH]c2nnc(-c3cccnc3)cc12)C1CC1` ?
inactive

What did the test return for `CN1C/C=C/CCOc2cccc(c2)-c2ccnc(n2)Nc2cccc(c2)C1` ?
active

What did the test return for `COc1cc(-c2c(C#N)c(N)nc(N3CCOCC3)c2C#N)cc(OC)c1OC` ?
inactive

What did the test return for `COc1cc([C@@H]2C[C@H]2c2cc(SC)n[nH]2)cc(OC)c1OC` ?
inactive

What did the test return for `COc1cc2c(cc1Nc1nc(Nc3cccc(F)c3C(N)=O)c3cc[nH]c3n1)N(C(=O)CN1CCN(C(C)C)CC1)CC2` ?
inactive

What did the test return for `Oc1cc2ccccc2c(-c2c(O)c(O)cc3ccccc23)c1O` ?
inactive
